Target: Z A1AT (Homo sapiens, UniProt P01009, E366K)
Construct: expressed in transfected cells; host or cells: HEK-Z cells (human embryonic kidney cell line)
Sequence (P01009 25-418 E366K): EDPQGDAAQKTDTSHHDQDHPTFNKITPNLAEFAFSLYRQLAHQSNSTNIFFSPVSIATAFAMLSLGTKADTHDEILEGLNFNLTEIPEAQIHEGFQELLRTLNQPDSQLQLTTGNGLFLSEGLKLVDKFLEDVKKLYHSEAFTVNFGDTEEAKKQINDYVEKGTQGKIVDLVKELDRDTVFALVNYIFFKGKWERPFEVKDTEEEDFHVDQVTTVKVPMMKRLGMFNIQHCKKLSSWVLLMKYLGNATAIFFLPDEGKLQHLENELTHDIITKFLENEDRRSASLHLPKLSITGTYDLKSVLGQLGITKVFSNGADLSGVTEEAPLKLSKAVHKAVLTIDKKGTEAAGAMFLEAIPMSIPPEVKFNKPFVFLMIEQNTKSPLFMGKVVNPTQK
Test: A1AT cell secretion assay using HEK-Z cells (A1AT ELISA of supernatants)
Type: cell-based
Settings: HEK-Z cells, 300 nM, 48 h, secreted human A1AT in supernatant by ELISA; read-out: Median A1AT % increase over vehicle at 300 nM
measurementKind: activation at 0.3 µM (%)

Field: example entries. Status: answers known.
O=C(c1ccc(Cn2cnccc2=O)cc1)N1CCCC1 :: 350
CN(Cc1ccccc1)C(=O)c1ccc(Cn2cnccc2=O)cc1 :: 150
CCN(CC)C(=O)c1ccc(Cn2cnccc2=O)cc1 :: 230

A: O=C(c1ccc(Cn2cnccc2=O)cc1)N1CCOCC1
B: CC(C)N(C)C(=O)c1ccc(Cn2cnccc2=O)cc1
Request: Problem: Given the entries A and B , determine which has the lower reported activation at 0.3 µM. Field: selected label. Fill in the label of the entry you choose.
Result: B

---

Target: Z A1AT (Homo sapiens, UniProt P01009, E366K)
Construct: expressed in transfected cells; host or cells: HEK-Z cells (human embryonic kidney cell line)
Assay: A1AT cell secretion assay using HEK-Z cells (A1AT ELISA of supernatants)
Format: cell-based
Details: HEK-Z cells, 300 nM, 48 h, secreted human A1AT in supernatant by ELISA; read-out: Median A1AT % increase over vehicle at 300 nM
measurementKind: activation at 0.3 µM (%)

Cc1ncn(Cc2ccc(C(=O)N(C)C)cc2)c(=O)c1C [Example 18] :: 170

P: CN(CC(F)(F)F)C(=O)c1ccc(Cn2cnccc2=O)cc1 [Example 9]
Q: CN1CCN(C(=O)c2ccc(Cn3cnccc3=O)cc2)CC1 [Example 4]
R: NC(=O)c1ccc(Cn2cnccc2=O)cc1 [Example 10]
Request: Rank the 3 molecules: largest activation at 0.3 µM first, smallest last. List the labels according to the requested ordering.
Result: Q, R, P

---

Biological target: Z A1AT (Homo sapiens, UniProt P01009, E366K)
Construct: expressed in transfected cells; host or cells: HEK-Z cells (human embryonic kidney cell line)
Test: A1AT cell secretion assay using HEK-Z cells (A1AT ELISA of supernatants)
Assay type: cell-based
Conditions: HEK-Z cells, 300 nM, 48 h, secreted human A1AT in supernatant by ELISA; read-out: Median A1AT % increase over vehicle at 300 nM
measurementKind: activation at 0.3 µM (%)

CNC(=O)c1ccc(Cn2cnc3ccc(Cl)cc3c2=O)cc1 :: 200
O=C(NCC(F)(F)F)c1ccc(Cn2cnccc2=O)cc1 :: 180
CC(C)NC(=O)c1ccc(Cn2cnccc2=O)cc1 :: 210

P: O=C(NCc1ccc(F)cc1)c1ccc(Cn2cnccc2=O)cc1
Q: CCN(C)C(=O)c1ccc(Cn2cnccc2=O)cc1
Request: Which value of activation at 0.3 µM is numerically greater: that of P or that of Q ? Kindly state the label of the option you pick.
Result: Q
(Q: 330%, P: 190%)
